- ASSAYED_TARGET: CDK2/Cyclin E kinase (Homo sapiens)
- EXPERIMENT: CDK2/Cyclin E Flashplate Assay: 96-Well Format
- RUN_PARAMETERS: streptavidin-coated flashplate; biotinylated-Rb peptide substrate 10 μM; 33P-ATP/ATP 1 μM; CDK2/Cyclin E 20 nM; 30 minutes at 30° C.; 1% DMSO
Measured IC50, listed per entry.

# COMPOUND_SMILES, IC50
measured = [
    ("O=C(NCCc1ccccc1Cl)c1cc(-c2ccncc2)n[nH]c1=O", "0.164 µM"),
    ("O=C(NCc1ccc(Cl)cc1F)c1cc(-c2ccncc2)n[nH]c1=O", "0.787 µM"),
    ("O=C(NCc1ccc(Br)cc1)c1cc(-c2ccncc2)n[nH]c1=O", "0.802 µM"),
    ("O=C(NCc1ccc(Cl)cc1Cl)c1cc(-c2ccncc2)n[nH]c1=O", "0.905 µM"),
    ("O=C(NCc1ccc(Cl)cc1)c1cc(-c2cn[nH]c2)n[nH]c1=O", "0.344 µM"),
    ("CCCCNc1nccc(-c2cc(C(=O)NCc3cccnc3)c(=O)[nH]n2)n1", "0.015 µM"),
    ("O=C(NCc1ccc(F)cc1)c1cc(-c2ccncc2)n[nH]c1=O", "0.519 µM"),
    ("O=C(NCc1ccc(Cl)cc1)c1cc(-c2ccncc2)n[nH]c1=O", "0.577 µM"),
    ("COc1cc(-c2cc(C(=O)NCc3ccc(Cl)cc3)c(=O)[nH]n2)ccc1O", "0.147 µM"),
    ("O=C(NCc1ccc(Cl)cc1)c1cc(-c2ccc(O)c(Cl)c2)n[nH]c1=O", "0.173 µM"),
    ("O=C(NCc1ccc(Cl)cc1)c1cc(-c2ccnc(NCCN3CCOCC3)n2)n[nH]c1=O", "0.027 µM"),
    ("CS(=O)(=O)c1ccc(CNC(=O)c2cc(-c3ccncc3)n[nH]c2=O)cc1", "0.664 µM"),
    ("CNc1cc(-c2cc(C(=O)NCc3ccc(Cl)cc3)c(=O)[nH]n2)ccn1", "0.157 µM"),
    ("COc1cc(-c2cc(C(=O)NCc3ccc(C(=O)O)cc3)c(=O)[nH]n2)ccc1O", "0.149 µM"),
    ("O=C(NCc1ccc(Cl)cc1)c1cc(-c2cc(F)c(O)c(F)c2)n[nH]c1=O", "0.464 µM"),
    ("O=C(NCc1ccc(F)c(Br)c1)c1cc(-c2ccncc2)n[nH]c1=O", "0.349 µM"),
    ("CCCCNc1nccc(-c2cc(C(=O)NCCCc3cccnc3)c(=O)[nH]n2)n1", "0.012 µM"),
    ("Cc1ccc(CNC(=O)c2cc(-c3ccncc3)n[nH]c2=O)s1", "0.353 µM"),
]

###

- ASSAYED_TARGET: CDK2/Cyclin E kinase (Homo sapiens)
- EXPERIMENT: CDK2/Cyclin E Flashplate Assay: 96-Well Format
- RUN_PARAMETERS: streptavidin-coated flashplate; biotinylated-Rb peptide substrate 10 μM; 33P-ATP/ATP 1 μM; CDK2/Cyclin E 20 nM; 30 minutes at 30° C.; 1% DMSO
pIC50: −log10 of the molar value.
MEASUREMENT_TYPE: pIC50

# COMPOUND_SMILES, QUANTITATIVE_READOUT
rows = [
    ("O=C(NCCCc1cccnc1)c1cc(-c2ccc(O)cc2)n[nH]c1=O", 6.88),
    ("CCOC(=O)CCNC(=O)c1cc(-c2ccncc2)n[nH]c1=O", 6.12),
    ("COc1ccc(CNC(=O)c2cc(-c3ccncc3)n[nH]c2=O)cc1", 6.26),
    ("O=C(NCCCc1ccccc1)c1cc(-c2ccncc2)n[nH]c1=O", 6.28),
    ("O=C(NCc1ccc(C(F)(F)F)cc1)c1cc(-c2ccncc2)n[nH]c1=O", 6.44),
    ("C[C@@H](Nc1nccc(-c2cc(C(=O)NCCCc3cccnc3)c(=O)[nH]n2)n1)c1ccccc1", 6.90),
    ("CCCCNc1nccc(-c2cc(C(=O)NCCCN3CCN(C)CC3)c(=O)[nH]n2)n1", 6.97),
    ("CCNc1nccc(-c2cc(C(=O)NCc3ccc(Cl)cc3)c(=O)[nH]n2)n1", 7.74),
    ("CNc1nccc(-c2cc(C(=O)NCc3ccc(Cl)cc3)c(=O)[nH]n2)n1", 7.52),
    ("O=C(NCCCCO)c1cc(-c2ccncc2)n[nH]c1=O", 6.24),
    ("O=C(NCc1ccc(Cl)cc1)c1cc(-c2ccc(O)c(F)c2)n[nH]c1=O", 6.99),
    ("COC(=O)c1ccc(CNC(=O)c2cc(-c3ccncc3)n[nH]c2=O)cc1", 7.62),
    ("O=C(NCc1ccc(Cl)cc1)c1cc(-c2ccc(O)cc2)n[nH]c1=O", 6.92),
    ("O=C(NCc1ccc(Cl)s1)c1cc(-c2ccncc2)n[nH]c1=O", 6.45),
    ("O=C(NCc1ccc(Cl)c(Cl)c1)c1cc(-c2ccncc2)n[nH]c1=O", 6.76),
    ("O=C(NCc1ccc2c(c1)OCO2)c1cc(-c2ccncc2)n[nH]c1=O", 6.66),
    ("O=C(NCc1ccc(O)cc1)c1cc(-c2ccncc2)n[nH]c1=O", 6.27),
    ("COc1cc(-c2cc(C(=O)NCCCc3cccnc3)c(=O)[nH]n2)ccc1O", 6.76),
]
